The measured values listed here are drawn from ChEMBL document CHEMBL1148617.

# SUBJECT OF TEST: Adenosine receptor A2b (Homo sapiens)
# PROTOCOL SUMMARY: Displacement of [3H]DPCPX from recombinant human adenosine A2B receptor expressed in HEK293 cells at 0.01 uM
READOUT LABEL: inhibition (%)

Illustrative cases are given below, each with its answer.
* Cn1c(=O)c2[nH]c(-c3ccc(OCC(=O)NC4CCCC4)cc3)cc2n(C)c1=O | 20
* CCn1c(=O)c2[nH]c(-c3ccc(OCC(=O)Nc4ccccc4)cc3)cc2n(CC)c1=O | 45

(A) CCCn1c(=O)c2[nH]c(-c3ccc(N(C=O)CC(=O)Nc4ccccc4)cc3)cc2n(CCC)c1=O
(B) CCCn1c(=O)c2[nH]c(-c3ccc(OCC(=O)Nc4ccc(Br)cc4)cc3)c(Cl)c2n(CCC)c1=O
Qu. Which of these two has the smaller recorded inhibition: A or B ? # reply format: chosen label
Ans. A

###

Observed Ki for Adenosine receptor A2a (Homo sapiens, UniProt P29274), reported per entry below.
READOUT LABEL: Ki (nM)

* CCCn1c(=O)c2nc(-c3cc(OCC(=O)c4ccc(Br)cc4)n(C)n3)[nH]c2n(CCC)c1=O | 93.3

(I) CCCn1c(=O)c2[nH]c(-c3ccc(OCC(=O)Nc4ccc(C(=O)NCCc5ccc(OC)cc5)cc4)cc3)cc2n(CCC)c1=O
(II) CCCn1c(=O)c2[nH]c(-c3ccc(OCC(=O)Nc4ccc(C)cn4)cc3)cc2n(CCC)c1=O
(III) COc1cc(-c2cc3c([nH]2)c(=O)n(C)c(=O)n3C)ccc1OCC(=O)Nc1ccc(F)cc1
(IV) CCCn1c(=O)c2[nH]c(-c3ccc(OCC(=O)Nc4ccc(Cl)cc4)cc3)cc2n(CCC)c1=O
(V) Cn1c(=O)c2[nH]c(-c3ccc(OCC(=O)NCc4ccccc4)cc3)cc2n(C)c1=O
Qu. With regard to Ki, arrange the entries in ascending order, please. Show the ranking through the labels, in the order asked for.
Ans. IV, III, V, II, I
(IV: 31.6 nM, III: 45.7 nM, V: 182 nM, II: 275 nM, I: 427 nM)

###

# SUBJECT OF TEST: Adenosine receptor A2a (Homo sapiens, UniProt P29274)
# Sequence (P29274 whole entry): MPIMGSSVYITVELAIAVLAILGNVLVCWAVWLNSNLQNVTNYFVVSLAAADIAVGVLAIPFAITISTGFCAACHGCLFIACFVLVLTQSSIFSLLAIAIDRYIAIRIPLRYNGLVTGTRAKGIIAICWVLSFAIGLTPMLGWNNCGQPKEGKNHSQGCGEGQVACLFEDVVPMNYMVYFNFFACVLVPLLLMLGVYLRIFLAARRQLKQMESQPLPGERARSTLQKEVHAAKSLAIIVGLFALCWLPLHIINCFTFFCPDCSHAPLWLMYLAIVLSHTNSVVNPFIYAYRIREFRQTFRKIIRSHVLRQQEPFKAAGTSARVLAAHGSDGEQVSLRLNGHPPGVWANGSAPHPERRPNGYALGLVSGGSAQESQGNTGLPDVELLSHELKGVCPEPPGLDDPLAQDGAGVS
# PROTOCOL SUMMARY: Displacement of [3H]ZM-241385 from recombinant human adenosine A2A receptor expressed in HeLa cells at 0.1 uM
READOUT LABEL: inhibition (%)

Illustrative cases are given below, each with its answer.
* CCCn1c(=O)c2[nH]c(-c3ccc(OCC(=O)Nc4ccccc4)cc3)c(Br)c2n(CCC)c1=O | 54
* CCCn1c(=O)c2[nH]c(-c3ccc(N(C=O)CC(=O)Nc4ccccc4)cc3)cc2n(CCC)c1=O | 61
* Cn1c(=O)c2[nH]c(-c3ccc(OCC(=O)NC4CCCC4)cc3)cc2n(C)c1=O | 8
* CCOC(=O)COc1ccc(-c2cc3c([nH]2)c(=O)n(C)c(=O)n3C)cc1 | 10
* CCCn1c(=O)c2[nH]c(-c3ccc(OCC(=O)Nc4ccc(I)cc4)cc3)cc2n(CCC)c1=O | 57

(A) CCCn1c(=O)c2[nH]c(-c3ccc(OCC(=O)Nc4ccc(C(=O)OCC)cc4)cc3)cc2n(C)c1=O
(B) CCCn1c(=O)c2[nH]c(-c3ccc(OCC(=O)Nc4ccc(C)cc4)cc3)cc2n(CCC)c1=O
(C) CCCn1c(=O)c2[nH]c(-c3ccc(OCC(=O)Nc4ccc(C(=O)OCC)cc4)cc3)cc2n(CCC)c1=O
(D) CCCn1c(=O)c2[nH]c(-c3ccc(OCC(=O)Nc4ccc(-c5ccccc5)cc4)cc3)cc2n(C)c1=O
Qu. Ranking field: inhibition; order: falling. Show the ranking through the labels, in the order asked for.
Ans. B, C, D, A
